# Tested On: JAK3 enzyme (Homo sapiens)
# Assay Explanation: JAK Caliper Enzyme Assay at 1 mM ATP
# Type: biochemical
pIC50: −log10 of the molar value.
Just so you know, the groups by pIC50 go like this: low class = under 6, middle class = from 6 up to 7, high class = 7 and over

Molecule: C=CC(=O)N1CC[C@@H](Nc2cnc3[nH]cc(C(=O)NCCC(F)(F)F)c3n2)C[C@H]1C (single isomer, unassigned)
Label Value: middle class
//
Molecule: C=CC(=O)N1CCC(Oc2cnc3[nH]cc(C(=O)NCc4ccccc4F)c3c2)CC1
Label Value: low class
//
Molecule: C=CC(=O)N1C[C@@H](Nc2cnc3[nH]cc(C(=O)N[C@H](C)COC)c3n2)CC[C@H]1C (racemic) [Example 68]
Label Value: middle class
//
Molecule: C=CC(=O)N1CCN(c2cnc3[nH]cc(C(=O)N[C@@H](C)COC)c3n2)CC1
Label Value: high class
//
Molecule: C=CC(=O)N1CCC(Oc2cnc3[nH]cc(C(=O)NCC4(O)CCC4)c3n2)CC1
Label Value: middle class
//
Molecule: C=CC(=O)N1CC[C@H](Oc2cnc3[nH]cc(C(=O)NCC)c3n2)C[C@H]1C (single isomer, unassigned)
Label Value: middle class
//
Molecule: C=CC(=O)N1CCC(Nc2cnc3[nH]cc(C(=O)NCc4cccc(F)c4)c3n2)CC1
Label Value: high class
//
Molecule: C=CC(=O)N1C[C@@H](CC#N)C[C@@H](Nc2ncnc3[nH]ccc23)C1 (single isomer, unassigned) [Example 106]
Label Value: high class
//
Molecule: C=CC(=O)N1CCC(Oc2cnc3[nH]cc(C(=O)NCCC(F)(F)F)c3c2)CC1
Label Value: low class
//
Molecule: C=CC(=O)N1CCC[C@H]1COc1cnc2[nH]cc(C(=O)N[C@@H](C)COC)c2n1 (single isomer, unassigned)
Label Value: high class
//
Molecule: C=CC(=O)N1CCC(Oc2cnc3[nH]cc(C(=O)NCC4(O)CCCC(F)(F)C4)c3n2)CC1 (racemic)
Label Value: middle class

====

The entries below are paired with their reported pIC50.
# Tested On: JAK3 enzyme (Homo sapiens)
# Sequence (P52333 1-1124): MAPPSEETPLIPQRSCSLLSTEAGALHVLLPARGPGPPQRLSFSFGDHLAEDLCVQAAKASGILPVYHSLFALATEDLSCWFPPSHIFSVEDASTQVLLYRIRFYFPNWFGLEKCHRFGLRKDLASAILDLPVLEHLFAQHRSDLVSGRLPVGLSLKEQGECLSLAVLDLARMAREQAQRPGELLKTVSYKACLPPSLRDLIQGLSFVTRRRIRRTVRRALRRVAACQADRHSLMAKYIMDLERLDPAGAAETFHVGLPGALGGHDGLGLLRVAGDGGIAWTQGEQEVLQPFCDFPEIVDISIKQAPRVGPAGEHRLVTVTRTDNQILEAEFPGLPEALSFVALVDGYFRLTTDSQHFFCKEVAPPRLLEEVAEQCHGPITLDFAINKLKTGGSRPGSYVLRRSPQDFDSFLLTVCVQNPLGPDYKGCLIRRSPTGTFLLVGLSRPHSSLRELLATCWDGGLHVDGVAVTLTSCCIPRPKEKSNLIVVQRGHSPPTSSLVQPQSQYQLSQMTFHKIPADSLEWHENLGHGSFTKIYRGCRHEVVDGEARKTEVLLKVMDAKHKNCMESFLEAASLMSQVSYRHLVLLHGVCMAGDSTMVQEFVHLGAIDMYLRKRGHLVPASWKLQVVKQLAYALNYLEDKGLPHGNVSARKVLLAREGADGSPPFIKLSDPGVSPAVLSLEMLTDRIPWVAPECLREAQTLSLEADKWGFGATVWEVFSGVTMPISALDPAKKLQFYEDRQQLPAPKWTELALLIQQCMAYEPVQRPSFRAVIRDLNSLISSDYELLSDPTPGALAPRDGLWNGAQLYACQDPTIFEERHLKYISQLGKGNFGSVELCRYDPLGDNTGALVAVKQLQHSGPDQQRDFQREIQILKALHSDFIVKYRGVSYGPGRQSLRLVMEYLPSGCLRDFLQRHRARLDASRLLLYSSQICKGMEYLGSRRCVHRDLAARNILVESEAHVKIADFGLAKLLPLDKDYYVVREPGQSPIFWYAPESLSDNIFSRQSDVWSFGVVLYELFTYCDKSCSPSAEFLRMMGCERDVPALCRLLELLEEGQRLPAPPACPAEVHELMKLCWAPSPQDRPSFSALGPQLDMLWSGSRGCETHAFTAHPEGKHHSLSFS
# Assay Explanation: JAK Caliper Enzyme Assay at 1 mM ATP
# Type: biochemical
pIC50: −log10 of the molar value.

Molecule: C=CC(=O)N1CCC(C)(Nc2cnc3[nH]cc(C(=O)NCC4CC(F)(F)C4)c3n2)CC1
pIC50: 6.97

Molecule: C=CC(=O)N1CC[C@@H](Nc2cnc3[nH]cc(C(=O)NCC(C)CC(F)(F)F)c3n2)[C@@H](OC)C1 (mixture of isomers)
pIC50: 7.09

Molecule: C=CC(=O)N1CC[C@@H](Nc2cnc3[nH]cc(C(=O)NCC)c3n2)[C@H](OC)C1 (racemic) [Example 25]
pIC50: 7.04
